Target: T1, Source 2 VEGF-D, purified recombinant human VEGF-D monomer (R&D Systems, Catalog Number 622-VD/CF) (human, UniProt O43915 93-201)
T1 sequence: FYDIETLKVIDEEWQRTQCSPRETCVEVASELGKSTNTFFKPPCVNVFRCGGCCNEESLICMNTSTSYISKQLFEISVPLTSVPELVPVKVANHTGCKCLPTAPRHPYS
Experiment: cell-based or functional assay
Measurement label: rank in the VEGFR-3-Ba/F3 bioassay (rank)
Provide only the numeric value, understood in rank.

The examples below pair each entry with its known result.
{"Binder": "humanized IgG antibody derived from clone DI26 (antibody, V domains shown, IgG) VH: QVQLVQSGAKVKQPGASVKASCKASGYTFTGYNMYWVRQAPGQGLEWMGYIDPYSGDTTYNQKFKGRVTMTTDTSTSTAYMELRSLRSDDTAVYYCARTSYYGGMDYWGRGTLVTVAS VL: DIVMTQTPLSSPVTLGQPASISCRSSQSLVHSNGNTYLHWLQQRPGQPPRLLIYKVSNRFSGVPDRFSGSGAGTDFTLKISRVEAEDVGVYYCSQSTHVPRTFGQGTKLEIKR", "rank in the VEGFR-3-Ba/F3 bioassay (rank)": 2}
{"Binder": "humanized IgG antibody derived from clone HH69 (antibody, V domains shown, IgG) VH: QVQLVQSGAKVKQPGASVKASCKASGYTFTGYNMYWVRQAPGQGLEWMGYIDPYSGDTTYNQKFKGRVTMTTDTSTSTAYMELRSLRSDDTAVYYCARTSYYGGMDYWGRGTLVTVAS VL: DIVMTQTPLSGPVTLGQPASISCRSSQSLVHSNGNTYLHWLQQRPGQPPRLLIYKVSNRFSGVPDRFSGSGAGTDFTLKISRVEAEDVGVYYCSQSTHVPRTFGRGTKLEIKR", "rank in the VEGFR-3-Ba/F3 bioassay (rank)": 3}
{"Binder": "humanized IgG antibody derived from clone F61 (antibody, V domains shown, IgG) VH: QVQLVQSGAEVKQPGASVKVSCKASGYTFTGYNMYWVRQAPGQGLEWMGYIDPYNGDTTYNQKFKGRVTMTTDTSTSTAYMKLRSLRSDDTAVYYCARTSYYGGMDYWGRGTLVTVAS VL: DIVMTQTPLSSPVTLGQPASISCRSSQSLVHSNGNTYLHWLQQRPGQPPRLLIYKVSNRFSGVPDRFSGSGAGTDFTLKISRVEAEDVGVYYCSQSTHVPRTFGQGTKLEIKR", "rank in the VEGFR-3-Ba/F3 bioassay (rank)": 8}

Task item: Can you share its rank in the VEGFR-3-Ba/F3 bioassay? I mean this binder: humanized IgG antibody derived from clone HU75 (antibody, V domains shown, IgG) VH: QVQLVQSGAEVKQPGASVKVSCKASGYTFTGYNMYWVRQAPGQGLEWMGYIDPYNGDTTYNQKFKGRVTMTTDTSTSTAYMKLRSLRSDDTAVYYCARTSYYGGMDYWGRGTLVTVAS VL: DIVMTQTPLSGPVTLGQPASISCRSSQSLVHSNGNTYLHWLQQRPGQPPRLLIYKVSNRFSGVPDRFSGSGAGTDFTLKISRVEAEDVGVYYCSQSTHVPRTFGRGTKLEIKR
Reply: 5
